Source of measurements: patent US10413505B1

- PROTOCOL_DETAILS: Example 2 plasma pharmacokinetics, normal renal function vs severe renal impairment
- TEST_SETTINGS: both, human, plasma, inhaled or intranasal, 160 mg, AUC0→∞ (Median), normal renal function; single intranasal 160 mg cocaine HCl
EXPERIMENTAL_READOUT: AUC(0-inf) (ng·h/mL)

[[record]]
compound = "COC(=O)[C@H]1[C@@H](OC(=O)c2ccccc2)C[C@@H]2CC[C@H]1N2C [Cocaine, cocaine, reference compound]"
observed = 92.9


###

- PROTOCOL_DETAILS: Example 3 plasma pharmacokinetics, normal hepatic function vs hepatic impairment
- TEST_SETTINGS: both, human, plasma, other: intranasal (drug-soaked pledgets in the nasal cavity), 160 mg, AUClast (Geometric Least Squares Mean, ANOVA), Grade C hepatic impairment
EXPERIMENTAL_READOUT: AUC(0-t) (ng·h/mL)

[[record]]
compound = "COC(=O)[C@H]1[C@@H](OC(=O)c2ccccc2)C[C@@H]2CC[C@H]1N2C [Cocaine, cocaine, reference compound]"
experimental_readout = "AUC(0-t)"
observed = 142


###

- PROTOCOL_DETAILS: Example 1 urinary pharmacokinetics after intranasal administration
- Type: in vivo, human
- TEST_SETTINGS: human, urine, other: intranasal, 160 mg, healthy subjects; single intranasal 160 mg cocaine HCl; urine 0-12 h; metabolites as cocaine equivalents; read-out: Urinary Recovery (Median)
EXPERIMENTAL_READOUT: dose excreted

[[record]]
compound = "COC(=O)[C@H]1[C@@H](OC(=O)c2ccccc2)C[C@@H]2CC[C@H]1N2C [Cocaine, cocaine, reference compound]"
observed = "0.0714%"


###

- PROTOCOL_DETAILS: Example 3 urinary pharmacokinetics, normal hepatic function vs hepatic impairment
- Type: in vivo, human
- TEST_SETTINGS: both sexes, human, urine, other: intranasal (drug-soaked pledgets in the nasal cavity), 160 mg, subjects with normal hepatic function; read-out: Renal Clearance, mean (converted)
EXPERIMENTAL_READOUT: CL renal (mL/min)

[[record]]
molecule = "COC(=O)[C@H]1[C@@H](OC(=O)c2ccccc2)C[C@@H]2CC[C@H]1N2C [Cocaine, cocaine, reference compound]"
experimental_readout = "CL renal"
observed = 29.8


###

- PROTOCOL_DETAILS: Example 3 urinary pharmacokinetics, normal hepatic function vs hepatic impairment
- Assay type: in vivo, human
- TEST_SETTINGS: both sexes, human, urine, other: intranasal (drug-soaked pledgets in the nasal cavity), 160 mg, subjects with hepatic impairment; read-out: Renal Clearance, geometric mean (converted)
EXPERIMENTAL_READOUT: CL renal (mL/min)

[[record]]
molecule = "COC(=O)[C@H]1[C@@H](OC(=O)c2ccccc2)C[C@@H]2CC[C@H]1N2C [Cocaine, cocaine, reference compound]"
units_label = "mL/min"
observed = 7.79


###

- PROTOCOL_DETAILS: Example 3 plasma pharmacokinetics, normal hepatic function vs hepatic impairment
- TEST_SETTINGS: both, human, plasma, other: intranasal (drug-soaked pledgets in the nasal cavity), 160 mg, AUClast (Geometric Least Squares Mean, ANOVA), Grade B hepatic impairment
EXPERIMENTAL_READOUT: AUC(0-t) (ng·h/mL)

[[record]]
compound = "COC(=O)[C@H]1[C@@H](OC(=O)c2ccccc2)C[C@@H]2CC[C@H]1N2C [Cocaine, cocaine, reference compound]"
observed = 225


###

- PROTOCOL_DETAILS: Example 3 urinary pharmacokinetics, normal hepatic function vs hepatic impairment
- Type: in vivo, human
- TEST_SETTINGS: both sexes, human, urine, other: intranasal (drug-soaked pledgets in the nasal cavity), 160 mg, subjects with hepatic impairment, Table 30; read-out: Renal Clearance, mean (converted)
EXPERIMENTAL_READOUT: CL renal (mL/min)

[[record]]
compound = "COC(=O)[C@H]1[C@@H](OC(=O)c2ccccc2)C[C@@H]2CC[C@H]1N2C [Cocaine, cocaine, reference compound]"
experimental_readout = "CL renal"
units_label = "mL/min"
observed = 16.6


###

- PROTOCOL_DETAILS: Example 2 plasma pharmacokinetics, normal renal function vs severe renal impairment
- TEST_SETTINGS: both, human, plasma, inhaled or intranasal, 160 mg, Tmax (Geometric mean), severe renal impairment; single intranasal 160 mg cocaine HCl
EXPERIMENTAL_READOUT: Tmax (min)

[[record]]
molecule = "COC(=O)[C@H]1[C@@H](OC(=O)c2ccccc2)C[C@@H]2CC[C@H]1N2C [Cocaine, cocaine, reference compound]"
observed = 25.7


###

- PROTOCOL_DETAILS: Example 2 plasma pharmacokinetics, normal renal function vs severe renal impairment
- TEST_SETTINGS: both, human, plasma, inhaled or intranasal, 160 mg, AUC0→∞ (Geometric mean), severe renal impairment; single intranasal 160 mg cocaine HCl
EXPERIMENTAL_READOUT: AUC(0-inf) (ng·h/mL)

[[record]]
compound = "COC(=O)[C@H]1[C@@H](OC(=O)c2ccccc2)C[C@@H]2CC[C@H]1N2C [Cocaine, cocaine, reference compound]"
experimental_readout = "AUC(0-inf)"
units_label = "ng·h/mL"
observed = 107


###

- PROTOCOL_DETAILS: Example 1 urinary pharmacokinetics after intranasal administration
- Format: in vivo, human
- TEST_SETTINGS: human, urine, other: intranasal, 160 mg, healthy subjects; single intranasal 160 mg cocaine HCl; urine 0-12 h; metabolites as cocaine equivalents; read-out: Urinary Recovery (Geometric mean)
- Method: A single dose of a pharmaceutical composition was administered to both nostrils using cottonoid pledgets. […] Each pledget absorbed approximately 1 mL of pharmaceutical composition (i.e., 40 mg cocaine hydrochloride). Two soaked pledgets were placed into each nasal cavity of the subject and against the anterior septum for 20 minutes; thus, a total dose of 160 mg of cocaine hydrochloride was administered. […] Urinary pharmacokinetic parameters were analyzed using noncompartmental methods.
EXPERIMENTAL_READOUT: dose excreted

[[record]]
compound = "COC(=O)[C@H]1[C@@H](OC(=O)c2ccccc2)C[C@@H]2CC[C@H]1N2C [Cocaine, cocaine, reference compound]"
observed = "0.0603%"


###

- PROTOCOL_DETAILS: Example 3 plasma pharmacokinetics, normal hepatic function vs hepatic impairment
- TEST_SETTINGS: both, human, plasma, inhaled or intranasal, 160 mg, Cmax (Median), hepatic impairment; single intranasal 160 mg cocaine HCl
EXPERIMENTAL_READOUT: Cmax (ng/mL)

[[record]]
molecule = "COC(=O)[C@H]1[C@@H](OC(=O)c2ccccc2)C[C@@H]2CC[C@H]1N2C [Cocaine, cocaine, reference compound]"
experimental_readout = "Cmax"
units_label = "ng/mL"
observed = 42.6


###

- PROTOCOL_DETAILS: Example 2 plasma pharmacokinetics, normal renal function vs severe renal impairment
- TEST_SETTINGS: both, human, plasma, inhaled or intranasal, 160 mg, AUC0→∞ (Geometric mean), normal renal function; single intranasal 160 mg cocaine HCl
EXPERIMENTAL_READOUT: AUC(0-inf) (ng·h/mL)

[[record]]
compound = "COC(=O)[C@H]1[C@@H](OC(=O)c2ccccc2)C[C@@H]2CC[C@H]1N2C [Cocaine, cocaine, reference compound]"
experimental_readout = "AUC(0-inf)"
observed = 80.5


###

- PROTOCOL_DETAILS: Example 1 single-dose plasma pharmacokinetics after intranasal administration
- Type: in vivo, human
- TEST_SETTINGS: male, human, plasma, inhaled or intranasal, 160 mg, Male healthy subjects; single intranasal 160 mg cocaine HCl; plasma; read-out: AUCinf (Geometric mean)
EXPERIMENTAL_READOUT: AUC(0-inf) (ng·h/mL)

[[record]]
molecule = "COC(=O)[C@H]1[C@@H](OC(=O)c2ccccc2)C[C@@H]2CC[C@H]1N2C [Cocaine, cocaine, reference compound]"
units_label = "ng·h/mL"
observed = 45.7


###

- PROTOCOL_DETAILS: Example 3 plasma pharmacokinetics, normal hepatic function vs hepatic impairment
- TEST_SETTINGS: both, human, plasma, inhaled or intranasal, 160 mg, t1/2 (Geometric mean), hepatic impairment; single intranasal 160 mg cocaine HCl
EXPERIMENTAL_READOUT: half-life (h)

[[record]]
molecule = "COC(=O)[C@H]1[C@@H](OC(=O)c2ccccc2)C[C@@H]2CC[C@H]1N2C [Cocaine, cocaine, reference compound]"
experimental_readout = "half-life"
observed = 4.99


###

- PROTOCOL_DETAILS: Example 1 single-dose plasma pharmacokinetics after intranasal administration
- Type: in vivo, human
- TEST_SETTINGS: male, human, plasma, inhaled or intranasal, 160 mg, Male healthy subjects; single intranasal 160 mg cocaine HCl; plasma; read-out: AUCinf (Mean)
EXPERIMENTAL_READOUT: AUC(0-inf) (ng·h/mL)

[[record]]
compound = "COC(=O)[C@H]1[C@@H](OC(=O)c2ccccc2)C[C@@H]2CC[C@H]1N2C [Cocaine, cocaine, reference compound]"
observed = 47.2


###

- PROTOCOL_DETAILS: Example 2 plasma pharmacokinetics, normal renal function vs severe renal impairment
- TEST_SETTINGS: both, human, plasma, inhaled or intranasal, 160 mg, AUClast (Geometric Least Squares Mean, ANOVA), Normal renal function; single intranasal 160 mg cocaine HCl
EXPERIMENTAL_READOUT: AUC(0-t) (ng·h/mL)

[[record]]
compound = "COC(=O)[C@H]1[C@@H](OC(=O)c2ccccc2)C[C@@H]2CC[C@H]1N2C [Cocaine, cocaine, reference compound]"
experimental_readout = "AUC(0-t)"
observed = 78.7

